# protein stability index per entry
- EXPERIMENT_SUMMARY: protein stability index of a GFP-peptide fusion (GPS, HEK-293T) (PSI 1-6); higher = more stable;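 further: 24-mer peptide tiles fused after GFP, lentivirally expressed, FACS-sorted into six equal bins by GFP/DsRed ratio, decoded by Illumina sequencing, PSI is the read-weighted mean bin number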
- CONDITION_SET: treatment: DMSO; c terminus: a fixed tail appended
Answer with the value's number alone.

Sample answers from the record:
FSRAPVSALPLAPNHLGGGAVVLG [STX5] ... 2.81
SHPACPLEFAYYFRPGHLLANACL [ZSWIM9] ... 2.81
SLENTLTESEARYSSQLSQVQSLI [KRT33B] ... 3.05
LTAALLTFDTGCLTLSQYILLDPI [POMT2] ... 3.36
LGLTQNPEGQKVLFVTFLLIYMVT [OR4A15] ... 2.75

IN: Look at this sequence and give its reported protein stability index. VGDILWEHLEILQKEDVKPYQVNG [ETS1]
OUT: 3.1

IN: Look at this sequence and give its reported protein stability index. AYCLDQGAEDGDRAILYPCHGMSS [GALNT9]
OUT: 3.67

IN: Look at this sequence and give its reported protein stability index. QEVLSLRRENSTLDVECHEKEKHV [SASS6]
OUT: 5.2

IN: Look at this sequence and give its reported protein stability index. QKLLEQTQIIGEQNARLAELERKL [FBXO28]
OUT: 4.15

IN: Look at this sequence and give its reported protein stability index. ELDLSLSDLNEVPVKELAALPKAT [LRRC59]
OUT: 4.4

IN: Look at this sequence and give its reported protein stability index. LMLAGMGLHYIAFRKVKQMHLNFM [DNAJC4]
OUT: 2.45

====

- EXPERIMENT_SUMMARY: protein stability index of a GFP-peptide fusion (GPS, HEK-293T) (PSI 1-6); higher = more stable
- CONDITION_SET: treatment: DMSO; c terminus: a fixed tail appended
MEASUREMENT_LABEL: protein stability index
Answer with the value's number alone.

Sample answers from the record:
APATTSSWEVVRNPLIASSFSLVK [C22orf31] ... 2.91
KWFGRKRTLSAFLCLGGLACLIVM [SLC22A15] ... 5.07
DSGDVSNVIEKVKCILKTPGKINC [RHOBTB3] ... 2.92
VRSIQPEEKERIGQFVFARDAKAA [AASDHPPT] ... 4.13
MKFAQVFGCFFYVYYIFERLCAPL [SOAT1] ... 2.89

IN: Look at this sequence and give its reported protein stability index. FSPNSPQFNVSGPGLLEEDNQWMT [NECAB1]
OUT: 3.23

IN: Look at this sequence and give its reported protein stability index. QSQLSMKAGLENSLAETECRYATQ [KRT15]
OUT: 4.38

IN: Look at this sequence and give its reported protein stability index. LHEVLTEVVPIHGRGNFPTLEITL [TENT5C]
OUT: 2.73

IN: Look at this sequence and give its reported protein stability index. GWILIDRCGKHFGTILNYLRDGAV [KCTD10]
OUT: 3.08

====

# protein stability index per entry
- EXPERIMENT_SUMMARY: protein stability index of a GFP-peptide fusion (GPS, HEK-293T) (PSI 1-6); higher = more stable
- CONDITION_SET: treatment: MLN4924 1 uM, 8 h; c terminus: a fixed tail appended
Answer with the value's number alone.

NHDIRTANDGDYWRLLNPGEYVVT [CPXM2] ... 3.25
SGLFNHRGIHNIQKRYHCKECGKV [ZSCAN9] ... 3.13

IN: Look at this sequence and give its reported protein stability index. AWQYGPCTGITRLQRWCRAKHMGL [POLD4]
OUT: 2.3

IN: Look at this sequence and give its reported protein stability index. YDVAMNRAKDLVELDPEVEGTKPS [GOLPH3L]
OUT: 5.6

====

- EXPERIMENT_SUMMARY: protein stability index of a GFP-peptide fusion (GPS, HEK-293T) (PSI 1-6); higher = more stable
- CONDITION_SET: treatment: DMSO; c terminus: a fixed tail appended
# protein stability index per entry
Answer with the value's number alone.

TLRTLTGQDTMLKAMFSGRVEVLT [KCTD13] ... 2.44
SVILNHMAREHAFNIGLPDNIVNC [ZNF277] ... 1.98
YIMTRDYLTVKVWDLNMENRPIET [PPP2R2B] ... 2.16

IN: Look at this sequence and give its reported protein stability index. ERRRELVRSQTLPRTSEAQARKAL [SMTNL2]
OUT: 5.27

====

- EXPERIMENT_SUMMARY: protein stability index of a GFP-peptide fusion (GPS, HEK-293T) (PSI 1-6); higher = more stable
- CONDITION_SET: treatment: MLN4924 1 uM, 8 h; c terminus: a fixed tail appended
# protein stability index per entry
Answer with the value's number alone.

EEGIVSPSDLDLVMSEGLGMRYAF [CRYL1] ... 3.02
MEACMDGHVEVARLLLDSGAQVNM [ANKRD17] ... 3.06
VRGLYDFYLPREELWIYNMETGRW [KLHDC2] ... 2.24
QKCHSIGETDEVTKTEDRELVLRK [ZSCAN9] ... 5.37
LPKEASDGTGASQEPPTTDSQEAQ [TOR1AIP2] ... 5.54
PLLPLDMQGNQILVFPSSSSSSSS [ZBTB22] ... 4.1
LKNNETLVQHGVKPQEIVQVEIFS [IQUB] ... 2.98
SGKRLSGVSSVDSAFSSRGSLSLS [RIPK4] ... 3.57

IN: Look at this sequence and give its reported protein stability index. HEEVVEKVKKSGSRVMFLLVDKET [PDZK1]
OUT: 4.25

IN: Look at this sequence and give its reported protein stability index. SDGFRDCKKGDPKHGKRKRGRPRK [ELF3]
OUT: 5.22

IN: Look at this sequence and give its reported protein stability index. QSYPLCIYLINQKWFGRKRTLSAF [SLC22A15]
OUT: 2.2

IN: Look at this sequence and give its reported protein stability index. SSLSFFLKKMGKRLDYLNLKGARL [FBXO39]
OUT: 2.63

IN: Look at this sequence and give its reported protein stability index. DDKMVRFWRIDEDYPVQVAPLSNG [WSB1]
OUT: 3.45

IN: Look at this sequence and give its reported protein stability index. VAITVEVKQEEDIKPPPPLVLNSQ [RAD54B]
OUT: 2.98

IN: Look at this sequence and give its reported protein stability index. LPSAQDINRLVGLQNTYMGYLDYR [GLT8D2]
OUT: 2.52

====

- EXPERIMENT_SUMMARY: protein stability index of a GFP-peptide fusion (GPS, HEK-293T) (PSI 1-6); higher = more stable
- CONDITION_SET: treatment: MLN4924 1 uM, 8 h; c terminus: a fixed tail appended
MEASUREMENT_LABEL: protein stability index
Answer with the value's number alone.

Sample answers from the record:
LPHPKSMLQATAEANNLAAAASAK [ATL3] ... 5.07
GGSGGGSHHHHQSRGACTSHDPQS [KCNA4] ... 5.12
IHSPAHPEIEKADDHLQQPLQNQK [ZNF649] ... 5.35
KPSENHPLHNSGLLSLDPVQDKTP [MED27] ... 5.02
FLRQKVLSLPLPDPLKYYLLYYRE [PCMTD2] ... 2.26

IN: Look at this sequence and give its reported protein stability index. VLSLLSLEPAQRPPLSHIMAQPLC [NEK8]
OUT: 2.3

IN: Look at this sequence and give its reported protein stability index. MGQCRSANAEDAQEFSDVERAIET [S100A14]
OUT: 5.15

IN: Look at this sequence and give its reported protein stability index. LRRTGCAALRIANCKLFRLQLQQG [GAN]
OUT: 2.13

IN: Look at this sequence and give its reported protein stability index. ALRLAELARRRRRRQARREAEADK [NOP53]
OUT: 4.37

IN: Look at this sequence and give its reported protein stability index. FITRQLKGLEDTKSPQFNRYFYLL [PDS5B]
OUT: 2.11

IN: Look at this sequence and give its reported protein stability index. ADQRSRMLSIFYFAIPVGSGLGYI [SPNS1]
OUT: 2.26

IN: Look at this sequence and give its reported protein stability index. VENPSTASHSLSPSEHVQGKSPVN [ZNF649]
OUT: 5.21

IN: Look at this sequence and give its reported protein stability index. TIDKQREEMAKSSRASAARVGQLQ [LRRC45]
OUT: 4.73

IN: Look at this sequence and give its reported protein stability index. EERERIERVRRIHIKRPDDRAHLH [KCTD10]
OUT: 4.54

IN: Look at this sequence and give its reported protein stability index. EHAIAEAQKNMYFKTRLKCPRSLS [ZNF396]
OUT: 3.53

IN: Look at this sequence and give its reported protein stability index. TEVLRNMGFAAKAMKSVHENMDLN [CHMP4C]
OUT: 3.46

IN: Look at this sequence and give its reported protein stability index. SRWVRDPRYREDPCKQCKKKYVKG [FBXO34]
OUT: 3.92

IN: Look at this sequence and give its reported protein stability index. MQVNPISKRMGPMTVVRMDASVQP [RHOBTB1]
OUT: 3.43

IN: Look at this sequence and give its reported protein stability index. DVVNYFRTVGFEEQASAFQEQEID [SAMD13]
OUT: 3.88

IN: Look at this sequence and give its reported protein stability index. GADREFIEARRRALKRFVNLVARH [SNX8]
OUT: 2.64
